- assay procedure: Plasma Cmin and Cmax of PI/NNRTI in HIV-positive women on cART (LC-MS/MS)
- Assay type: in vivo, human
- condition: female, human, plasma, oral, 400 mg, HIV-positive women, plasma, 2 hours post-dose, 400 mg QD; read-out: Cmax Study participants median (IQR)
assay readout: Cmax at 2 h (ng/mL)
Response body: numeric value in ng/mL, unit text excluded.

Data request, read-out Cmax at 2 h, for Cc1ccnc2c1NC(=O)c1cccnc1N2C1CC1
6400

I'd like to know its Cmax at 2 h. The molecule in question is COC(=O)N[C@H](C(=O)N[C@@H](Cc1ccccc1)[C@@H](O)CN(Cc1ccc(-c2ccccn2)cc1)NC(=O)[C@@H](NC(=O)OC)C(C)(C)C)C(C)(C)C
1870

* * *

- assay procedure: Plasma Cmin and Cmax of PI/NNRTI in HIV-positive women on cART (LC-MS/MS)
- Assay type: in vivo, human
- condition: female, human, plasma, oral, 200 mg, HIV-positive women, plasma, 2 hours post-dose, 200 mg BID; read-out: Cmax Study participants median (IQR)
assay readout: Cmax at 2 h

Quick check: Cmax at 2 h of Cc1ccnc2c1NC(=O)c1cccnc1N2C1CC1 ?
5510 ng/mL

* * *

- assay procedure: Plasma Cmin and Cmax of PI/NNRTI in HIV-positive women on cART (LC-MS/MS)
- Format: in vivo, human
- condition: female, human, plasma, oral, 600 mg, HIV-positive women, plasma, 5 hours post-dose, 600 mg QD; read-out: Cmax Study participants median (IQR)
assay readout: Cmax at 5 h (ng/mL)
State just the number; it will be interpreted in ng/mL.

Tell me the measured Cmax at 5 h of O=C1Nc2ccc(Cl)cc2[C@@](C#CC2CC2)(C(F)(F)F)O1 , please.
3240

* * *

- assay procedure: Plasma Cmin and Cmax of PI/NNRTI in HIV-positive women on cART (LC-MS/MS)
- Assay type: in vivo, human
- condition: female, human, plasma, oral, HIV-positive women, plasma, 800 QD boosted with ritonavir; read-out: Cmax Mean (SD)
assay readout: Cmax (ng/mL)
Output spec: scalar in ng/mL, unitless text.

Quick one: Cmax of Cc1cccc(C)c1OCC(=O)N[C@@H](Cc1ccccc1)[C@@H](O)C[C@H](Cc1ccccc1)NC(=O)[C@H](C(C)C)N1CCCNC1=O ?
11200

* * *

- assay procedure: Plasma Cmin and Cmax of PI/NNRTI in HIV-positive women on cART (LC-MS/MS)
- Format: in vivo, human
- condition: female, human, plasma, oral, HIV-positive women, plasma, 800 mg QD with ritonavir 200 mg; read-out: Cmax Study participants median (IQR)
assay readout: Cmax
Express the reported value numerically, then name its unit.

GET /values?readout=Cmax&item= Cc1cccc(C)c1OCC(=O)N[C@@H](Cc1ccccc1)[C@@H](O)C[C@H](Cc1ccccc1)NC(=O)[C@H](C(C)C)N1CCCNC1=O
11700 ng/mL
